Reported Post-emergence Crop Selectivity, percentage phytotoxicity, Wheat − CQC values for a set of molecules
System: Winter Wheat variety 'Hereward'
Protocol details: Glasshouse assay for crop safety, post-emergence, +/- safener cloquintocet-mexyl (CQC), percentage phytotoxicity
Assay type: in vivo
Experimental conditions: 250 g/ha, without safener cloquintocet-mexyl (CQC), evaluated after 13 days, 100=total damage, 0=no damage
Give the quantity in %, number only.

Reference set (4 entries):
Cc1cc(C)c(C2C(=O)CC(CC(=O)NCCc3ccccc3)C2=O)c(C)c1 (centres unmarked) :: 60
Cc1cc(C)c(C2C(=O)CC(CC(=O)NC3CCCC3)C2=O)c(C)c1 (centres unmarked) :: 60
Cc1cc(-c2ncc(F)cn2)cc(C)c1C1C(=O)CC(CC(=O)NCc2cccc(Cl)c2)C1=O (centres unmarked) :: 70
Cc1cc(C)c(C2C(=O)CC(CC(=O)NCc3ccccc3)C2=O)c(C)c1 (centres unmarked) :: 60

Short answer for CCCN(C)C(=O)CC1CC(=O)C(c2c(C)cc(C)cc2C)C1=O (centres unmarked) : Post-emergence Crop Selectivity, percentage phytotoxicity, Wheat − CQC was 40

Short answer for CC#Cc1cc(C)c(C2C(=O)CC(CC(=O)NCC(=O)C(C)(C)C)C2=O)c(C)c1 (centres unmarked) : Post-emergence Crop Selectivity, percentage phytotoxicity, Wheat − CQC was 80

Short answer for Cc1cc(C)c(C2C(=O)CC(CC(=O)N3CCCCC3)C2=O)c(C)c1 (centres unmarked) : Post-emergence Crop Selectivity, percentage phytotoxicity, Wheat − CQC was 60

Short answer for CCC(C)NC(=O)CC1CC(=O)C(c2c(C)cc(C)cc2C)C1=O (centres unmarked) : Post-emergence Crop Selectivity, percentage phytotoxicity, Wheat − CQC was 60

Short answer for Cc1cc(C)c(C2C(=O)CC(CC(=O)NCC3CC3)C2=O)c(C)c1 (centres unmarked) : Post-emergence Crop Selectivity, percentage phytotoxicity, Wheat − CQC was 80

Short answer for CCNC(=O)CC1CC(=O)C(c2c(C)cc(C)cc2C)C1=O (centres unmarked) : Post-emergence Crop Selectivity, percentage phytotoxicity, Wheat − CQC was 40

Short answer for Cc1cc(-n2cc(Cl)cn2)cc(C)c1C1C(=O)CC(CC(=O)NC2(c3ccccn3)CC2)C1=O (centres unmarked) : Post-emergence Crop Selectivity, percentage phytotoxicity, Wheat − CQC was 80

Short answer for Cc1cc(C)c(C2C(=O)CC(CC(=O)NCC(C)(C)C)C2=O)c(C)c1 (centres unmarked) : Post-emergence Crop Selectivity, percentage phytotoxicity, Wheat − CQC was 60
